Molecular target: UDP-galactopyranose mutase (BcUGM) (Botrytis cinerea, UniProt A0A384JG93)
Sequence (A0A384JG93 entry or part of it): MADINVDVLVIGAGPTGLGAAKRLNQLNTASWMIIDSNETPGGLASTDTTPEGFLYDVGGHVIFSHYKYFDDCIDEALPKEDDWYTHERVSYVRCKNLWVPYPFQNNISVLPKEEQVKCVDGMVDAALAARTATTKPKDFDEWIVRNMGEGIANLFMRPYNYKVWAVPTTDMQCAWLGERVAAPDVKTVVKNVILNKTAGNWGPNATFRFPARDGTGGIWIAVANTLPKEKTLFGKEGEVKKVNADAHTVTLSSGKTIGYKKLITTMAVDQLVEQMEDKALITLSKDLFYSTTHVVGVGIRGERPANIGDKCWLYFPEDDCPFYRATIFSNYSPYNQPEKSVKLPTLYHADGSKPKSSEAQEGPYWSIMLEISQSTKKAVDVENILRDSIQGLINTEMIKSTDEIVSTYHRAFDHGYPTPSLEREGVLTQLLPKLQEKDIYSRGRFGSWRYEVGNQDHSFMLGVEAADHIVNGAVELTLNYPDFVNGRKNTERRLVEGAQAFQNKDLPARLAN
Assay: enzyme kinetics with purified recombinant BcUGM, varying UDP-Galp, HPLC-UV and LC-MS product detection
observedProperty: Ki (µM)

• C[C@H]1O[C@H](OP(=O)(O)OP(=O)(O)OC[C@H]2O[C@@H](n3ccc(=O)[nH]c3=O)[C@H](O)[C@@H]2O)[C@H](O)[C@@H](O)C1=O = 222
